Test system: NCI/ADR-RES ovarian
Experiment: NCI-60 one-dose screen, 48 h (100 = growth as untreated, 0 = no growth, -100 = all killed)
Settings: 10 µM unless noted
Description: Growth inhibition of the NCI/ADR-RES human […] tumor cell line is measured as a screen for anti-cancer activity. Cells are grown in 96 well plates and exposed to the test compound for 48 hours. Compounds are tested at a single concentration, which is 10^-5 M for most compounds. The reported endpoint is percent growth (GI% or GIPRCNT), where numbers from 0 - 100% represent growth inhibition, and numbers from -100% - 0 represent cell death. For example, a value of 40 represents 60% growth inhibition. […]
About 83,000 compounds went through this panel and 20% of them were active in at least one assay; those are over-represented in the sample as a whole.
Response key: yes means growth >= 80%; no means growth < 80%.

QUERY: Textbook exercise: given the entry `O=C1C=CC(O)=CC1=P(c1ccccc1)(c1ccccc1)c1ccccc1` , state whether its growth is greater than or equal to 80%.
RESULT: yes

QUERY: Given CCN(CC)CC(O)c1cc(-c2ccc(Cl)cc2)nc2cc(Cl)ccc12 (stereo unspecified) , state whether its growth is at least 80%.
RESULT: no

QUERY: Check if growth >= 80% (inclusive). Item: `C(=N\Nc1ccc2ccccc2n1)/c1ccccn1`
RESULT: no

QUERY: Dear colleague, could you confirm whether `O=C(O)c1ccc2c(c1)C(=O)c1ccccc1C2=O` has growth at or above 80%?
RESULT: yes

QUERY: Is it the case that `CCCCCCCCCCCCCCCc1ccc(C(=O)C[n+]2ccccc2)cc1` has growth reaching or exceeding 80%?
RESULT: no

====

System: DU-145 prostate
Assay: NCI-60 one-dose screen, 48 h
Details: 10 µM unless noted
The panel holds about 83,000 compounds, 20% with a hit somewhere; the sample as a whole holds those more often. Calls of active or inactive are those of the source. The calls were made as follows: active = growth percent below 10; inactive = the rest.
Return exactly one item of active, inactive

QUERY: Which result was noted for this compound in the test: `NC(=Nc1nc(-c2ccccn2)cc2ccccc12)c1ccccn1`
RESULT: active

QUERY: What was the test verdict on `NC(=S)N/N=C/c1ncccc1O` ?
RESULT: inactive

QUERY: GET /call?item= `Cc1nnc(N/N=C/c2ccc([N+](=O)[O-])o2)[nH]c1=O` returns the recorded outcome of this test.
RESULT: inactive

QUERY: Lab log entry: COc1ccc(C(Cn2ccnc2)Sc2ccc(Cl)c(Cl)c2)cc1 (stereo not given) — outcome as called in the assay?
RESULT: inactive

QUERY: For `CN=C(N)N/N=C(\c1ccccc1)c1ccc(Br)cc1` , which call appears in the assay record?
RESULT: active

====

Tested on: TK-10 renal
Experiment: NCI-60 one-dose screen, 48 h
Conditions: 10 µM unless noted
About 83,000 compounds went through this panel and 20% of them were active in at least one assay; those are over-represented in the sample as a whole. Activity calls are given as the source filed them. How the source made its calls: active means growth percent below 10; inactive means the rest.
// classify into Yes = active, No = inactive

QUERY: Record lookup: outcome of this test for `O=C(NOC(=O)c1ccccc1)c1ccccc1` ?
RESULT: No

QUERY: What did the test return for COc1ccc(C(OCC2OC(n3ccc(NC(=O)c4ccccc4)nc3=O)C(O)C2O)(c2ccccc2)c2ccccc2)cc1 (stereo not given) ?
RESULT: No

QUERY: Query: recorded result category for `Oc1ccc(Cl)cc1Cc1cc(Cl)ccc1O` in this test
RESULT: No

QUERY: Status in this test for `CC(C)(C)c1ccc(CCO)cc1` ?
RESULT: No

QUERY: Outcome? `Cc1nn(CCO)c(C)c1N=[N+]([O-])c1c(C)nn(CCO)c1C`
RESULT: Yes

QUERY: Called result for `Cc1ccc2cccc(OC(=O)Nc3cccc(C(F)(F)F)c3)c2n1`
RESULT: No

QUERY: Hey, what did the test say about `CCOC(=O)NC(/C=C/c1ccccc1)NC(=O)OCC` ?
RESULT: No

QUERY: Look up the recorded call for `C[n+]1ccccc1C[n+]1ccccc1` in this test.
RESULT: No

QUERY: Entry `Nc1cc(-c2ccccc2)ccc1O` : call = ?
RESULT: No

QUERY: # outcome recorded in this test, key = `O=C1/C(=C/c2ccccc2)CCC/C1=C\c1ccccc1`
RESULT: No

QUERY: Dear all, I need the recorded test outcome for COc1ccc2c(c1OC)OCC(CN(C)C)C2=O (stereo not given) , thank you.
RESULT: No

QUERY: Would you mind telling me which call this test gave `c1ccc(-c2cccc(-c3ccccn3)n2)nc1` ?
RESULT: No

QUERY: Which result was noted for this molecule in the test: `O=C1C=CC(=O)N1C1CCCCCCCCCCC1`
RESULT: No

QUERY: What call does the record list for `Cc1cc2nc(CC(=O)c3ccncc3)c(=O)[nH]c2cc1C` ?
RESULT: No

QUERY: Which result was noted for this molecule in the test: `O=C(c1ccccc1)c1ccc(O)c2ncccc12`
RESULT: No

QUERY: Can you look up the reported call for `CCCOC(=O)c1nc(N(CC2CCCCC2)C(=O)NC)sc1/N=C/c1ccccc1` for me?
RESULT: No

QUERY: Would you mind telling me which call this test gave `O=C1C=CC(=O)N1c1ccccc1` ?
RESULT: No

QUERY: Dear colleague, could you share the recorded outcome for `COc1cc2c(c(OC)c1OC)-c1ccc(NCc3ccccc3)c(=O)cc1[C@@H](NC(C)=O)CC2` when you have a moment?
RESULT: No

QUERY: Test call for this molecule, please: `Cc1cc(N/N=C/c2ccccn2)nc2ccccc12`
RESULT: No

QUERY: Please state the recorded outcome for this molecule: `Clc1ccc(-n2ncc3c(NCCCN4CCOCC4)ncnc32)cc1`
RESULT: No

QUERY: Lab log entry: `Oc1ccc(Cl)cc1C(c1cc(Cl)ccc1O)C(Cl)(Cl)Cl` — outcome as called in the assay?
RESULT: No

QUERY: Identify the outcome logged in this assay for the molecule shown: `O=[N+]([O-])c1ccc([I+]c2ccccc2)cc1`
RESULT: Yes

QUERY: Just curious, what result did `CC(C)(C)c1ccc(O)c(Br)c1` get here?
RESULT: No

QUERY: Which outcome was assigned to `CCCCCCCCCCCC[n+]1ccc2ccccc2c1` in this test?
RESULT: Yes

QUERY: Look up the recorded call for `S=C1SCN(Cc2cccs2)CN1Cc1cccs1` in this test.
RESULT: No

QUERY: Assay result, entry `CC1=C(C2=C(C)C(=O)C(=O)c3cc(C)ccc32)c2ccc(C)cc2C(=O)C1=O` — outcome?
RESULT: Yes

QUERY: Record lookup: outcome of this test for `CCCCCCCCCCCCSC(=N)N` ?
RESULT: No

QUERY: Kindly provide the recorded test outcome for the following molecule: CCOC(=O)C1(C)CCCC1N (stereo not given)
RESULT: No

QUERY: Record lookup: outcome of this test for `CCCCCCCCc1cc(Cl)c(O)c(Cl)c1` ?
RESULT: No

QUERY: // outcome(item) with item = `COC(=O)c1nc(=S)[nH]c(C(=O)OC)c1C(=O)c1ccc(Cl)c(Cl)c1`
RESULT: No

QUERY: Which outcome was assigned to `Cc1cc(C)c([I+]c2c(C)cc(C)cc2C)c(C)c1` in this test?
RESULT: No

QUERY: Tell me the assay call for `S=C(S)OCN1CCOCC1` please.
RESULT: No

QUERY: // outcome(item) with item = `N=C1C=C(N)C(=O)c2ccccc21`
RESULT: Yes

QUERY: Assay outcome for CCC(C)C(N)C(=O)NC(CC(N)=O)C(=O)NC(CC(C)C)C(=O)NC(CCCCN)C(=O)NC(C)C(=O)NC(CC(C)C)C(=O)NC(C)C(=O)NC(C)C(=O)NC(CC(C)C)C(=O)NC(C)C(=O)NC(CCCCN)C(=O)NC(CCCCN)C(=O)NC(C(=O)NC(CC(C)C)C(N)=O)C(C)CC (stereo not given) : what was it?
RESULT: No

QUERY: // outcome(item) with item = CCCCCCCCCCCC1N=C(N)N=C(N)N1c1cccc(Br)c1 (stereo not given)
RESULT: Yes

====

Please respond with reported growth for every item in the list.
System: HOP-62 NSCLC
Assay: NCI-60 one-dose screen, 48 h (100 = growth as untreated, 0 = no growth, -100 = all killed)
Conditions: 10 µM unless noted
About 83,000 compounds went through this panel and 20% of them were active in at least one assay; those are over-represented in the sample as a whole.
Please state the figure in %; there is no need to write the unit.

QUERY: Please report the measured growth for `O=C1C=CC(=O)N1C1CCCCCCCCCCC1` tested on HOP-62 NSCLC.
RESULT: 101

QUERY: State growth (HOP-62 NSCLC) of `Cc1cccc2c(N)c3ccccc3nc12` .
RESULT: -7.52

QUERY: Tell me growth of `O=C(/C=C/c1ccccc1)c1ccccc1O` when tested on HOP-62 NSCLC.
RESULT: 103

QUERY: Print HOP-62 NSCLC growth for CN(C)CCSC1=Nc2ccc(Cl)cc2C(c2ccccc2Cl)N(C)C1 (configuration not stated) .
RESULT: 55.9

QUERY: State measured growth of the compound `CCCCCCCCCCCCCCCCCC1=NCCCN1CCO` with HOP-62 NSCLC.
RESULT: 90.7

QUERY: Report measured growth on HOP-62 NSCLC; entry: `COc1ccc(/C=C2/C(=O)ON=C2C)cc1`
RESULT: 101

QUERY: Provide growth, recorded with HOP-62 NSCLC, of `CCNc1nnnn1CC`
RESULT: 110

QUERY: Report measured growth on HOP-62 NSCLC; entry: C=C(C(N)=O)C(N)C(=O)O (configuration not stated)
RESULT: 110

QUERY: For HOP-62 NSCLC, give growth of the listed compound: `O=Nc1ccc2ccccc2c1O`
RESULT: 95.2

QUERY: Enter growth (test system HOP-62 NSCLC) for `c1ccc(-c2cccc(-c3ccccn3)n2)nc1`
RESULT: 7.3

QUERY: Using HOP-62 NSCLC as the test system, report measured growth of `O=[N+]([O-])c1ccc(Oc2ccccc2Cl)c([N+](=O)[O-])c1` .
RESULT: 99.4

QUERY: Tell me growth of `CC(C)(C)c1ccc(CCO)cc1` when tested on HOP-62 NSCLC.
RESULT: 97.5
